List of clearance values.
- EXPERIMENT_SUMMARY: Total clearance in mouse at 20 mg/kg, iv administered as bolus dose by band-culture bioassay
- EXPERIMENTAL_CONDITIONS: in vivo

# MOLECULE, clearance, mL/min/kg
records = [
    ("CCO/N=C(\\C(=O)N[C@@H]1C(=O)N2C(C(=O)[O-])=C(/C=C/C[n+]3cccc4cc(/C([O-])=N/C#N)[nH]c43)CS[C@H]12)c1csc(N)n1.[Na+]", 15),
    ("CCO/N=C(\\C(=O)N[C@@H]1C(=O)N2C(C(=O)[O-])=C(/C=C/C[n+]3ccc(-c4cc(/C([O-])=N/C#N)on4)cc3)CS[C@H]12)c1csc(N)n1.[Na+]", 22.6),
    ("CCO/N=C(\\C(=O)N[C@@H]1C(=O)N2C(C(=O)[O-])=C(/C=C/C[n+]3ccc(-c4csc(/C([O-])=N/C#N)n4)cc3)CS[C@H]12)c1csc(N)n1.[Na+]", 12.2),
    ("CO/N=C(\\C(=O)N[C@@H]1C(=O)N2C(C(=O)[O-])=C(C[n+]3ccc(-c4cc(/C([O-])=N/C#N)[nH]n4)cc3)CS[C@H]12)c1csc(N)n1.[Na+] (stereo in doubt)", 18.4),
    ("CCO/N=C(\\C(=O)N[C@@H]1C(=O)N2C(C(=O)[O-])=C(/C=C/C[n+]3ccc(/C([O-])=N/C#N)cc3)CS[C@H]12)c1csc(N)n1.[Na+]", 22.9),
    ("CCO/N=C(\\C(=O)N[C@@H]1C(=O)N2C(C(=O)[O-])=C(/C=C/C[n+]3ccc4sc(/C([O-])=N/C#N)nc4c3)CS[C@H]12)c1csc(N)n1.[Na+]", 14),
    ("CCO/N=C(\\C(=O)N[C@@H]1C(=O)N2C(C(=O)[O-])=C(/C=C/C[n+]3ccc(-c4cc(/C([O-])=N/C#N)n(C)n4)cc3)CS[C@H]12)c1csc(N)n1.[Na+]", 13.2),
    ("CCO/N=C(\\C(=O)N[C@@H]1C(=O)N2C(C(=O)[O-])=C(/C=C/C[n+]3ccc(-c4csc(/C([O-])=N/C#N)c4)cc3)CS[C@H]12)c1csc(N)n1.[Na+]", 11),
    ("CCO/N=C(\\C(=O)N[C@@H]1C(=O)N2C(C(=O)[O-])=C(/C=C/C[n+]3ccc4c(/C([O-])=N\\C#N)cccc4c3)CS[C@H]12)c1csc(N)n1.[Na+]", 23.5),
    ("CCO/N=C(\\C(=O)N[C@@H]1C(=O)N2C(C(=O)[O-])=C(/C=C/C[n+]3ccc(-c4cc(/C([O-])=N/C#N)n(C)c4)cc3)CS[C@H]12)c1csc(N)n1.[Na+]", 12.8),
    ("CCO/N=C(\\C(=O)N[C@@H]1C(=O)N2C(C(=O)[O-])=C(/C=C/C[n+]3ccc4[nH]c(/C([O-])=N/C#N)cc4c3)CS[C@H]12)c1csc(N)n1.[Na+]", 10.9),
]
